TESTED TARGET: T1, rat pancreatic islet (wild type) GIP-receptor stably expressed on CHO-K1 cells (rat, UniProt P43219 19-455)
T1 sequence (looked up): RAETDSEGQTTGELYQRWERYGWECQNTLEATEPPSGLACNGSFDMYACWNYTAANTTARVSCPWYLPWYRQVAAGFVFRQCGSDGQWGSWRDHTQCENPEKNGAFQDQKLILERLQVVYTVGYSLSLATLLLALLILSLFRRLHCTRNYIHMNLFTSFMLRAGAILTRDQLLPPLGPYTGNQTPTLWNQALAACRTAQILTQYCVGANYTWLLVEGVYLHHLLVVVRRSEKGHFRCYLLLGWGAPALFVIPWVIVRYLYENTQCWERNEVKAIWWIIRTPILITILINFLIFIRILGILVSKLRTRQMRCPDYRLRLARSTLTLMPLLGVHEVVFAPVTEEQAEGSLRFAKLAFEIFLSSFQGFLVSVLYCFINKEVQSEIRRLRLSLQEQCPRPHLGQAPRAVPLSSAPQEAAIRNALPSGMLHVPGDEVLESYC
METHOD DESCRIPTION: cell-based or functional assay
Ends that are not written are not given here.
MEASURED QUANTITY: Max. cAMP (Fold Basal) (fold basal)
Give bare numbers, in fold basal.

Solved cases below.
{"BINDER": "YAEGTFISDYSIAMEKEKQQDFVNWLLAQK-NH2 (range 1-14;range 19-30) [GIP(1-14)(EKEK)(19-30)NH2]", "MEASURED QUANTITY": "Max. cAMP (Fold Basal)", "VALUE": 80.6}
{"BINDER": "YAEGTFEKEKQQDFVNWLLAQK-NH2 (range 1-6;range 19-30) [GIP(1-6)(EKEK)(19-30)NH2]", "MEASURED QUANTITY": "Max. cAMP (Fold Basal)", "VALUE": 8.17}

### Prompt Entry YAEGTFAAAAQQDFVNWLLAQK-NH2 (range 1-6;range 19-30; also called GIP(l-6)(AAAA)(19-30)NH2) [GIP(1-6)(AAAA)(19-30)NH2] has what Max. cAMP (Fold Basal)?
### Response 7.21
